assay: qHTS for Inhibitors of binding or entry into cells for Lassa Virus; settings: Lassa virus pseudotype entry inhibition, cell reporter; series mostly up to 37.9 µM; further: nearly all actives have a fitted effect of over 50% in size
About 3,700 (1.2%) of roughly 300,000 compounds were called active. About 20% were inconclusive and are not listed. The call rests on the fitted dose curve; tested in HEK293 cells. This is one part of a sample in which actives are shown more often than they occur.
Write down one outcome, taken from label 1 (active), label 0 (inactive)

{"compound": "Cc1ccc(Nc2nc(CSc3nnc(-c4ccncc4)n3-c3ccccc3C)cs2)cc1", "label_value": "label 1"}
{"compound": "CCOc1ncccc1C(=O)Nc1ccc2c(c1)OCCO2", "label_value": "label 0"}
{"compound": "COc1ccc(NC(=O)/C(C#N)=C\\c2cc(OC)c(OCc3ccc(C(=O)O)cc3)cc2Br)cc1", "label_value": "label 0"}

INPUT: Answer briefly: the call reported for COc1ccccc1N1CCN(c2nc(C)cc(=O)[nH]2)CC1 in this assay.
OUTPUT: label 0

INPUT: Answer briefly: the call reported for CCCOc1ccc(C(=O)CCC(=O)OC(C)C(=O)Nc2ccc(NC(C)=O)cc2)cc1 (stereo not given) in this assay.
OUTPUT: label 0

INPUT: Answer briefly: the call reported for CCOC(=O)N1CCN(C(=O)C(=O)Nc2sc3c(c2C#N)CC(C)(C)OC3)CC1 in this assay.
OUTPUT: label 0

INPUT: Answer briefly: the call reported for CC12C=C(C=Cc3ccc(F)cc3)C(C)(C1)C(c1ccc(F)cc1)CC2=O (stereo not given) in this assay.
OUTPUT: label 0

INPUT: Answer briefly: the call reported for OC(COc1ccccc1)CN1CCN(c2cccc(Cl)c2)CC1 (stereo not given) in this assay.
OUTPUT: label 0

INPUT: Answer briefly: the call reported for NC(=O)C1CCN(C(=O)c2cccc(NC(=O)c3nsc4ccccc34)c2)CC1 in this assay.
OUTPUT: label 0

INPUT: Answer briefly: the call reported for COc1ccc(C2NCCCC2c2ccccc2)cc1 (stereo not given) in this assay.
OUTPUT: label 0

INPUT: Answer briefly: the call reported for CC(C)c1ccc(S(=O)(=O)N2CCN(C(=O)CN3C(=O)NC(C)(c4ccccc4)C3=O)CC2)cc1 (stereo not given) in this assay.
OUTPUT: label 0
